List of IC50 values.
target: NFκB (Homo sapiens); construct: endogenous in cells; host or cells: HeLa cells (ATCC), nuclear extract; assay: NFκB assay (EZ-Detect Transcription Factor Assay kit; TNF-α-treated HeLa cells, nuclear extracts); type: cell-based; conditions: Table 20 summary; read-out: NFκBIC50
Sequence (Q04206 whole entry): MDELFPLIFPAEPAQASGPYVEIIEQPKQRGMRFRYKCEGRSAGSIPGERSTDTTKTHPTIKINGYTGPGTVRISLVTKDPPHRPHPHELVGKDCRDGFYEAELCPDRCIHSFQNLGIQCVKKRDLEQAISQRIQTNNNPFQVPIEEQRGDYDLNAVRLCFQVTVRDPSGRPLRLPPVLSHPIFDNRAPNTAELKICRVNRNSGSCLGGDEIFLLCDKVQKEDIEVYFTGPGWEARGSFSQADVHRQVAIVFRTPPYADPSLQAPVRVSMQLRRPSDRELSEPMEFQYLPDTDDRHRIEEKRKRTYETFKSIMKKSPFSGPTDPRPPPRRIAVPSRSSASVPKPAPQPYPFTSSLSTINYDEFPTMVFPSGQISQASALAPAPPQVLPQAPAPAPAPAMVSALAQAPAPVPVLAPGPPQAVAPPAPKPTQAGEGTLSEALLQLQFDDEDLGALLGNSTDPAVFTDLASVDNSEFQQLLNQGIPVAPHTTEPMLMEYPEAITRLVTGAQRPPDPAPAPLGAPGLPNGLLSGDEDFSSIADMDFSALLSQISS
VALUE TYPE: IC50 (µM)

[[record]]
sample_smiles = "C/C=C/c1cc(OC)c2c(c1)[C@H](C)[C@@H](c1ccc3c(c1)OCO3)O2"
value_type = "IC50"
numeric_result = 0.479

[[record]]
sample_smiles = "C/C=C/c1ccc(O[C@H](C)[C@@H](OC(C)=O)c2ccc3c(c2)OCO3)c(OC)c1"
value_type = "IC50"
numeric_result = 0.0001

[[record]]
sample_smiles = "C/C=C/c1cc(OC)c2c(c1)[C@H](C)[C@@H](c1ccc(O)c(OC)c1)O2"
value_type = "IC50"
numeric_result = 0.0306

[[record]]
sample_smiles = "C=CCc1cc(OC)c(O[C@H](C)[C@@H](O)c2ccc3c(c2)OCO3)c(OC)c1"
value_type = "IC50"
numeric_result = 0.0644


---

Target: PPAR-γ (Homo sapiens, UniProt P37231)
Construct: endogenous in cells; host or cells: CCD-112CoN normal colon cells or HeLa cells (ATCC), nuclear extract
Sequence (P37231 1-505): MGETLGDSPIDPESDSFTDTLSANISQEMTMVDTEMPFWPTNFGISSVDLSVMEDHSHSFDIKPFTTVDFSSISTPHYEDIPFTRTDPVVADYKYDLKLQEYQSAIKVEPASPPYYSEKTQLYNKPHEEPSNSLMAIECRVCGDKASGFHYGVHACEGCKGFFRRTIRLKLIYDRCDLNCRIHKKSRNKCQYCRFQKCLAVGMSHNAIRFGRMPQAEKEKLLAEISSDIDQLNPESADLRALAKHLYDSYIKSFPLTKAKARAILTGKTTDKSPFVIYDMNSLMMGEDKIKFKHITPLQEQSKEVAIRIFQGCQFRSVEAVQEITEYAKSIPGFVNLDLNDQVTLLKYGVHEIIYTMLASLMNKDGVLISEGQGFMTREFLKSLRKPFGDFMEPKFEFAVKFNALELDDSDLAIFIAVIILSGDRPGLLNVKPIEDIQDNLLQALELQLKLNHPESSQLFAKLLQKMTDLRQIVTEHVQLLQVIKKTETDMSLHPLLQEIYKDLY
Experiment: PPAR-γ ELISA assay (PPAR-α,γ,δ Complete Transcription Factor Assay Kit; CCD-112CoN or Hela cells, nuclear extracts)
Type: cell-based
Conditions: Table 19; licarin A derivatives at 50 μg/mL in Hela cells
Description: To evaluate the ability of natural product extracts and compounds to induce specific binding of PPAR-γ transcription factor in nuclear extracts to immunosorbed peroxisome proliferator response element, the PPAR-α,γ,δ Complete Transcription Factor Assay Kit (Cayman Chemical Company) was used according to the kit protocol. […] Specific binding was detected through quantification of absorptivity at 630 nm in a BioTek uQuant microplate reader (BioTek Instruments, Inc.). […]
VALUE TYPE: PPAR-γ % activation (%)

[[record]]
molecule = "C/C=C/c1cc(OC)c2c(c1)[C@H](C)[C@@H](c1ccc(OC(=O)OCC)c(OC)c1)O2 [Compound 47, licarin A ethyl carbonate]"
numeric_result = 0

[[record]]
molecule = "COc1cc([C@H]2Oc3c(OC)cc(C=O)cc3[C@@H]2C)ccc1OC(C)C [Compound 46, isopropoxy-licarin A carbaldehyde]"
numeric_result = 29

[[record]]
molecule = "C/C=C/c1cc(OC)c2c(c1)[C@H](C)[C@@H](c1ccc(OC(C)C)c(OC)c1)O2 [Compound 45, isopropoxy-licarin A]"
numeric_result = 57

[[record]]
molecule = "CCOC(=O)Oc1ccc([C@H]2Oc3c(OC)cc(C=O)cc3[C@@H]2C)cc1OC [Compound 48, licarin A formyl ethyl carbonate]"
numeric_result = 0


These measurements were taken from patent US20250011296A1.
